- TESTED ON: recombinant PRL-3 (Homo sapiens, UniProt O75365)
- Construct: 6xHis (N, cleaved yes); made in house; host or cells: E. coli One Shot BL21 Star
- Sequence (O75365 whole entry): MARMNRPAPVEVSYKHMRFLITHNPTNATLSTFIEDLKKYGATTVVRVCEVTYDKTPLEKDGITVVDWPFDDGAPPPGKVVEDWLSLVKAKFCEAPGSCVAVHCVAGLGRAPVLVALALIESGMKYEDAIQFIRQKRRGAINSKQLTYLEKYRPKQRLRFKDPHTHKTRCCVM
- ASSAY SUMMARY: In vitro phosphatase assay (DiFMUP hydrolysis), PRL-3
- Type: biochemical
- RUN CONDITIONS: FDA-approved drug screen; activity compared to DMSO
Counter-ions that a name gives are not always drawn.
Label rule, in plain words: % Phosphatase Activity (compared to DMSO) PRL-3 of 80% and up is class 1, under 80% is class 0.

Sample answers from the record:
compound="COc1cc2nc(N3CCN(C(=O)C4CCCO4)CC3)nc(N)c2cc1OC (stereo not drawn) [Terazosin HCl]" label_value="class 1"
compound="COc1cc(NS(=O)(=O)c2ccc(N)cc2)nc(OC)n1 [Sulphadimethoxine]" label_value="class 1"
compound="Cc1cc(-n2c(=O)[nH]c(=O)n(C)c2=O)ccc1Oc1ccc(SC(F)(F)F)cc1 [Toltrazuril]" label_value="class 0"
compound="O=C(O[C@H]1C[C@H]2CC[C@@H](C1)[N+]21CCCC1)C(O)(c1ccccc1)c1ccccc1 [Trospium chloride]" label_value="class 1"

As a next step, examine the compound that follows.
Ask: Does % Phosphatase Activity (compared to DMSO) PRL-3 meet or surpass 80% for N#C[C@@H]1CCCN1C(=O)CNC12CC3CC(CC(O)(C3)C1)C2 [Vildagliptin (LAF-237)] ?
Reply: class 1

* * *

- TESTED ON: recombinant PRL-1 (Homo sapiens)
- Construct: 6xHis (N, cleaved yes); made in house; host or cells: E. coli One Shot BL21 Star
- Sequence (Q93096 whole entry): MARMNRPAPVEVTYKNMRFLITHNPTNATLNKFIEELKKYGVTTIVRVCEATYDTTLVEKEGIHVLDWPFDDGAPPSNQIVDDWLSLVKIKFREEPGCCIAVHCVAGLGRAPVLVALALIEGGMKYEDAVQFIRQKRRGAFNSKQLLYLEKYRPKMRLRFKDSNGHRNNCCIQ
- ASSAY SUMMARY: In vitro phosphatase assay (DiFMUP hydrolysis), PRL-1
- Format: biochemical
- RUN CONDITIONS: FDA-approved drug screen; compared to DMSO
Structures can show the parent of a compound that is named as a salt.
% Phosphatase Activity (compared to DMSO) PRL-1 values, listed per item

molecule="CN(CCOc1ccc(CC2SC(=O)NC2=O)cc1)c1ccccn1 (stereo not drawn) [Rosiglitazone maleate]" value_observed=104%
molecule="COc1cc(C)c(/C=C/C(C)=C/C=C/C(C)=C/C(=O)O)c(C)c1C [Acitretin]" value_observed=83%
molecule="Cc1ccc(-c2ncc(Cl)cc2-c2ccc(S(C)(=O)=O)cc2)cn1 [Etoricoxib]" value_observed=93%

The reported recombinant PRL-1 (Homo sapiens) % Phosphatase Activity (compared to DMSO) PRL-1 of CC(=O)NS(=O)(=O)c1ccc(NC(=O)c2ccccc2C(=O)O)cc1 [Phthalylsulfacetamide] is 104%

The reported recombinant PRL-1 (Homo sapiens) % Phosphatase Activity (compared to DMSO) PRL-1 of NCC[C@H](O)C(=O)N[C@@H]1C[C@H](N)[C@@H](O[C@H]2O[C@H](CN)[C@@H](O)[C@H](O)[C@H]2O)[C@H](O)[C@H]1O[C@H]1O[C@H](CO)[C@@H](O)[C@H](N)[C@H]1O [Amikacin hydrate] is 91%

The reported recombinant PRL-1 (Homo sapiens) % Phosphatase Activity (compared to DMSO) PRL-1 of O=C(O)c1ccc2c(c1)nc(Nc1cccc(Cl)c1)c1ccncc12 [CX-4945 (Silmitasertib)] is 85%

The reported recombinant PRL-1 (Homo sapiens) % Phosphatase Activity (compared to DMSO) PRL-1 of COC(=O)C1=C(C)NC(C)=C(C(=O)O[C@@H]2CCCN(Cc3ccccc3)C2)[C@@H]1c1cccc([N+](=O)[O-])c1.Cl (racemic) [Benidipine HCl] is 91%

The reported recombinant PRL-1 (Homo sapiens) % Phosphatase Activity (compared to DMSO) PRL-1 of CCC[C@H](N[C@@H](C)C(=O)N1[C@H](C(=O)O)C[C@@H]2CCCC[C@@H]21)C(=O)OCC [Perindopril Erbumine] is 88%

Taken from paper PMC8119466.
